Where a name gives a salt, the structure may show the parent alone.
VALUE TYPE: melting point

[
  {
    "COMPOUND": "CC#CCOc1ccc(S(=O)(=O)N(C)C(C(=O)NO)C(C)(C)SCCn2ccnc2)cc1 (stereo not drawn) (as salt: hydrochloride)",
    "VALUE TYPE": "melting point",
    "OBSERVED": "67 to 70 °C"
  }
]

For the compound CC#CCOc1ccc(S(=O)(=O)N(C)C(C(=O)NO)C(C)(C)SCCN2CCN(C)CC2)cc1 (stereo not drawn) , what melting point is on record?
110 to 115 °C

Now this one: CC#CCOc1ccc(S(=O)(=O)N(C)C(C(=O)NO)C(C)(C)SCCN(CC)CC)cc1 (stereo not drawn)
55 to 57 °C

###

biological target: MMP-13 (Homo sapiens, UniProt P45452); experiment: MMP-13 inhibition (thiopeptide or fluorescent peptide substrate); format: biochemical; conditions: read-out: MMP-13 IC50
pIC50: −log10 of the molar value.
VALUE TYPE: pIC50

[
  {
    "COMPOUND": "CC#CCOc1ccc(S(=O)(=O)N2CCN(C(=O)Nc3cc(Cl)cc(Cl)c3)CC2C(=O)NO)cc1 (stereo not shown)",
    "pIC50": 6.82
  }
]

I = CC#CCOc1ccc(S(=O)(=O)N(Cc2cccnc2)C(C(=O)NO)C(C)C)cc1 (stereo not shown)
II = CC#CCOc1ccc(S(=O)(=O)N2Cc3ccccc3CC2C(=O)NO)cc1 (stereo not shown)
III = CC#CCOc1ccc(S(=O)(=O)N2CCCS(=O)(=O)C[C@@H]2C(=O)NO)cc1
# rank by pIC50, ascending (min first) Please list the labels in the order you were asked to rank them.
I, III, II

###

target: MMP-1 (Homo sapiens, UniProt P03956); test: MMP-1 inhibition (thiopeptide or fluorescent peptide substrate); assay type: biochemical; conditions: read-out: MMP-1 IC50
Sequence (P03956 100-469): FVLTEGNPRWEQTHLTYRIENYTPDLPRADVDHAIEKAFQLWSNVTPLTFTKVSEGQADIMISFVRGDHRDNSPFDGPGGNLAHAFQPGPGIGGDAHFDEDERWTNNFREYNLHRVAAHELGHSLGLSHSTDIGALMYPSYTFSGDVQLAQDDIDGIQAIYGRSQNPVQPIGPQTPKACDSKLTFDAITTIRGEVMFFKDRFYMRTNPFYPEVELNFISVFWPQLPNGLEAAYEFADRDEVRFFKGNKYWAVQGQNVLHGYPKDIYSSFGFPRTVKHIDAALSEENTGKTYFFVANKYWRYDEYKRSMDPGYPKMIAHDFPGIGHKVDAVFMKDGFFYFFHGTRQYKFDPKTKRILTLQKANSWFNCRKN
pIC50: −log10 of the molar value.
VALUE TYPE: pIC50

A selection of reference data follows.
[
  {
    "MOLECULE": "CC#CCOc1ccc(S(=O)(=O)N(C)C(C(=O)NO)c2ccc(OCCN)cc2)cc1 (stereo not shown) [Example 181]",
    "pIC50": 6.19
  },
  {
    "MOLECULE": "CC#CCOc1ccc(S(=O)(=O)N(C)[C@@H](C(=O)NO)[C@H]2CC[C@H](O)CC2)cc1 [Example 130]",
    "pIC50": 6.77
  },
  {
    "MOLECULE": "CC#CCOc1ccc(S(=O)(=O)N2CCCSC(C)(C)[C@@H]2C(=O)NO)cc1 [Example 173]",
    "pIC50": 7.70
  },
  {
    "MOLECULE": "CC#CCOc1ccc(S(=O)(=O)N2CCN(C(=O)Nc3ccc(OC)cc3)CC2C(=O)NO)cc1 (stereo not shown) [Example 221]",
    "pIC50": 5.82
  },
  {
    "MOLECULE": "CC#CCOc1ccc(S(=O)(=O)N2CCN(C(=O)Nc3ccc(F)cc3)CC2C(=O)NO)cc1 (stereo not shown) [Example 222]",
    "pIC50": 6.03
  },
  {
    "MOLECULE": "CC#CCOc1ccc(S(=O)(=O)N(C)C(C(=O)NO)C(C)(C)SCCCN2CCN(C)CC2)cc1 (stereo not shown) [Example 147]",
    "pIC50": 7.68
  }
]

A = CC#CCOc1ccc(S(=O)(=O)N(C)C(C(=O)NO)c2ccc(OCCCNC(C)=O)cc2)cc1 (stereo not shown) [Example 194]
B = CC#CCOc1ccc(S(=O)(=O)NC(C(=O)NO)C(C)(C)SCCN2CCOCC2)cc1 (stereo not shown) [Example 164]
Which of these two has the smaller recorded pIC50: A or B ? # reply format: chosen label
B

I = CC#CCOc1ccc(S(=O)(=O)N(CC#CCN2CCN(C)CC2)C(C(=O)NO)C(C)C)cc1 (stereo not shown) [Example 125]
II = CC#CCOc1ccc(S(=O)(=O)N(C)C(C(=O)NO)C(C)(C)SCc2ccccc2)cc1 (stereo not shown) [Example 153]
Which of these two has the smaller recorded pIC50: I or II ? # reply format: chosen label
I
(I: 6.30, II: 7.89)

P = CC#CCOc1ccc(S(=O)(=O)N2CCN(C)CCC2C(=O)NO)cc1 (stereo not shown) [Example 293]
Q = CC#CCOc1ccc(S(=O)(=O)N2CCCSC[C@@H]2C(=O)NO)cc1 [Example 174]
R = CC#CCOc1ccc(S(=O)(=O)N(CC#CCN2CCN(C)CC2)C(C)C(=O)NO)cc1 (stereo not shown) [Example 135]
# rank by pIC50, ascending (min first) Please list the labels in the order you were asked to rank them.
R, Q, P
